B1: library; a variant is named by its letters at N, in order (parent)
chain: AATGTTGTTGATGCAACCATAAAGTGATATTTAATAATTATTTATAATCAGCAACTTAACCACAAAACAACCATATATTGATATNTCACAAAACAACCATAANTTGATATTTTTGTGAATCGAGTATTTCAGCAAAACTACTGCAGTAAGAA

Variants of: B1
Assay: relative integration efficiency (T-LR orientation) vs wild-type transposon end (log2 (normalized fold change)); transposon end mutated: left end; higher = more efficient transposition
Conditions: with VchCAST RNA-guided transposition machinery (E. coli BL21(DE3) host, lacZ target)
Listed next: entries and their corresponding relative integration efficiency (log2).

mutant-code	relative integration efficiency (log2)
CG A16C G24T T32G A33C	-0.475
TA G24A T30A T76A T78A T84A C87A A96C T110A T113A	0.0142
CG A64T A65T	0.0165
CG A2T	0.355
CG A107T T108A A109T T110A	-0.765
CG A91G	0.0207
TG A16C G24T T30A T76A T78G C87A	-0.0456
CG G117A	-0.315
CG A27C	-0.151
TA G24A T30A A70C T76A T84A C87A A102T T111C T113C	-0.133
CG A16C A70C A96C	-0.695
